protocolNotes: Human HepG2 cell viability assay in 384 well format
Type: toxicity, cell-based
Set-up: dose 125 nL, time 70.5 hour; concentration not given beside the values
statedConditions: HepG2 cells, read-out: Inhibition
quantityKind: cytotoxicity at 70.5 h

The cases that follow already have their cytotoxicity at 70.5 h on record.
stdin: Looking for the measured cytotoxicity at 70.5 h of COc1ccc(C(CO)NC(=O)Nc2cccc(C(C)=O)c2)cc1 (stereo unspecified) , can you help?
stdout: -6.17%

stdin: Looking for the measured cytotoxicity at 70.5 h of Cc1ccc(-n2cc(S(=O)(=O)Nc3cccc(C(=O)O)c3C)cn2)cc1 , can you help?
stdout: -12.2%

stdin: Looking for the measured cytotoxicity at 70.5 h of O=C(Cn1cc(C(=O)O)cn1)Nc1c(Cl)cccc1Cl , can you help?
stdout: -5.99%

stdin: Looking for the measured cytotoxicity at 70.5 h of CCn1ncc2c1C(COCC1CC1)CN(c1ccncn1)C2 (stereo unspecified) , can you help?
stdout: -8.04%

stdin: Looking for the measured cytotoxicity at 70.5 h of CSCCC(NC(=O)c1ccc2ccccc2n1)C(=O)O (stereo unspecified) , can you help?
stdout: 4.89%

Okay, next one:
stdin: Looking for the measured cytotoxicity at 70.5 h of O=S(=O)(N[C@@H]1CCO[C@]2(CCN(CC3CCOCC3)C2)C1)C1CC1 , can you help?
stdout: -8.9%
